Test system: MCF7
Protocol notes: Cytotoxicity against human MCF7 cells after 3 days by MTS assay
Format: functional, cell-based
Assay setup: MCF7, 72 h
Exam item: assign MET to entries whose IC50 is below 10 µM and NOT MET to entries at or above 10 µM. Note that a value of exactly 10 µM receives NOT MET.

(Q) Is the reported IC50 for C[C@@H]1O[C@@H](OCC#Cc2c(-c3ccccc3)oc3ccccc23)CC[C@@H]1NCc1ccccc1 strictly below 10 µM?
(A) NOT MET

(Q) Is the reported IC50 for CC(=O)N[C@H]1CC[C@H](OCC#Cc2c(-c3ccccc3)oc3ccccc23)O[C@H]1C strictly below 10 µM?
(A) NOT MET

(Q) Is the reported IC50 for CCCCN(CCCC)[C@H]1CC[C@H](OCC#Cc2c(-c3ccccc3)oc3ccccc23)O[C@H]1C strictly below 10 µM?
(A) NOT MET

(Q) Is the reported IC50 for CC(C)CCN(CCC(C)C)[C@H]1CC[C@H](OCC#Cc2c(-c3ccccc3)oc3ccccc23)O[C@H]1C strictly below 10 µM?
(A) NOT MET

(Q) Is the reported IC50 for C[C@@H]1O[C@@H](OCC#Cc2c(-c3ccccc3)oc3ccccc23)CC[C@@H]1NCC1CCCCC1 strictly below 10 µM?
(A) NOT MET

(Q) Is the reported IC50 for C[C@@H]1O[C@@H](OCC#Cc2c(-c3ccccc3)sc3ccccc23)CC[C@@H]1N(C)C strictly below 10 µM?
(A) MET

(Q) Is the reported IC50 for CCCCN(CCCC)[C@H]1CC[C@H](OCC#Cc2c(-c3ccccc3)sc3ccccc23)O[C@H]1C strictly below 10 µM?
(A) NOT MET

(Q) Is the reported IC50 for C[C@@H]1O[C@@H](OCC#Cc2c(-c3ccccc3)oc3ccccc23)CC[C@@H]1NCc1ccc([N+](=O)[O-])cc1 strictly below 10 µM?
(A) NOT MET

(Q) Is the reported IC50 for Cc1ccc(CN[C@H]2CC[C@H](OCC#Cc3c(-c4ccccc4)oc4ccccc34)O[C@H]2C)cc1 strictly below 10 µM?
(A) NOT MET

(Q) Is the reported IC50 for C[C@@H]1O[C@@H](OCC#Cc2c(-c3ccccc3)oc3ccccc23)CC[C@@H]1NCc1ccc(O)cc1 strictly below 10 µM?
(A) NOT MET

(Q) Is the reported IC50 for CCN(CC)[C@H]1CC[C@H](OCC#Cc2c(-c3ccccc3)oc3ccccc23)O[C@H]1C strictly below 10 µM?
(A) MET

(Q) Is the reported IC50 for C[C@@H]1O[C@@H](OCC#Cc2c(-c3ccccc3)oc3ccccc23)CC[C@@H]1N(C)C strictly below 10 µM?
(A) NOT MET

(Q) Is the reported IC50 for CC(C)CCN[C@H]1CC[C@H](OCC#Cc2c(-c3ccccc3)oc3ccccc23)O[C@H]1C strictly below 10 µM?
(A) NOT MET

(Q) Is the reported IC50 for C[C@@H]1O[C@@H](OCC#Cc2c(-c3ccccc3)oc3ccccc23)CC[C@@H]1NCc1ccc[nH]1 strictly below 10 µM?
(A) NOT MET

(Q) Is the reported IC50 for CCCCCCN[C@H]1CC[C@H](OCC#Cc2c(-c3ccccc3)oc3ccccc23)O[C@H]1C strictly below 10 µM?
(A) NOT MET

(Q) Is the reported IC50 for C[C@@H]1O[C@@H](OCC#Cc2c(-c3ccccc3)sc3ccccc23)CC[C@@H]1NCc1ccc(O)cc1 strictly below 10 µM?
(A) NOT MET

(Q) Is the reported IC50 for C[C@H](N)C(=O)N[C@H]1CC[C@H](OCC#Cc2c(-c3ccccc3)oc3ccccc23)O[C@H]1C strictly below 10 µM?
(A) MET
